Values compiled from ChEMBL document CHEMBL3045281.

Assay: Cytotoxicity against Chlorocebus aethiops (African green monkey) Vero cells after 72 hr by trypan blue assay
Format: cell-based
Conditions: chlorocebus sabaeus
experimental endpoint: CC50 at 72 h

| compound | CC50 at 72 h |
| --- | --- |
| CC(=O)N1C(=O)C(O)(C(F)(F)F)c2cc(C)ccc21 (stereo not given) | > 650 µM |

## Input Which CC50 at 72 h is reported for this compound? CN1C(=O)C(O)(C(F)(F)F)c2cc(Br)ccc21 (stereo not given)
## Output > 250 µM

## Input Looking for the measured CC50 at 72 h of O=C1Nc2ccccc2C1(O)C(F)(F)F (stereo not given) , can you help?
## Output > 650 µM

## Input I am curious: what CC50 at 72 h value has been reported for O=C1Nc2ccc(Cl)cc2C1(O)C(F)(F)F (stereo not given) ?
## Output > 700 µM

## Input Consider the compound CC(=O)N1C(=O)C(O)(C(F)(F)F)c2cc(Cl)ccc21 (stereo not given) and give its measured CC50 at 72 h.
## Output > 360 µM
